Sourced from patent US20200317776A1

# assay-system: T1, human TREM2 expressed on cells (human, UniProt Q9NZC2 19-230)
# T1 sequence: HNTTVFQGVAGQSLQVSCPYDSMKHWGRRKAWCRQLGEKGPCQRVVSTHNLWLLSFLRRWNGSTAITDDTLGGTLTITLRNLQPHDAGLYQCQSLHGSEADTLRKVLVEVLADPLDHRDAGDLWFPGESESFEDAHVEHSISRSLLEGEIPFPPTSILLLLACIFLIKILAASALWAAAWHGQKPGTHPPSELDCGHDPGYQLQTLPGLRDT
# measurement-description: cell-based or functional assay

# binder, unit-of-measure, Survival huDCs plate bound IgG, AUC
data = [
    ("AL2p-16 (antibody, V domains shown, Fab and IgG formats under one id) VH: QVQLVQSGAEVKKPGSSVKVSCKASGYAFSSHWMNWVRQAPGQGLEWMGRIYPGDGDTNYAQKFRGRVTITADESTSTAYMELSSLRSEDTAVYYCARLLRNQPGASYAMDYWGQGTLVTVSS VL: GVVMTQTPLSLSVTPGQPASISCRTSQSLVHSNGYTYLHWYLQKPGQSPQLLIYKVSNRVSGVPDRFSGSGSGTDFTLKISRVEAEDVGVYYCSQSTRVPYTFGQGTKLEIK", "AUC", 880000),
    ("AL2p-6 (antibody, V domains shown, AL2p-h50 variant; Fab and IgG formats under one id) VH: QVQLVQSGAEVKKPGSSVKVSCKASGYAFSSSWMNWVRQAPGQGLEWMGRIYPGDGDTNYAQKFQGRVTITADESTSTAYMELSSLRSEDTAVYYCARLLRNQPGESYAMDYWGQGTLVTVSS VL: DVVMTQTPLSLSVTPGQPASISCRSSQSLVHSNWYTYLHWYLQKPGQSPQLLIYKVSNRFSGVPDRFSGSGSGTDFTLKISRVEAEDVGVYYCSQSTRVPYTFGQGTKLEIK", "AUC", 547000),
    ("AL2p-3 (antibody, V domains shown, AL2p-h50 variant; Fab and IgG formats under one id) VH: QVQLVQSGAEVKKPGSSVKVSCKASGYAFSSSWMNWVRQAPGQGLEWMGRIYPGEGDTNYAQKFQGRVTITADESTSTAYMELSSLRSEDTAVYYCARLLRNQPGESYAMDYWGQGTLVTVSS VL: DVVMTQTPLSLSVTPGQPASISCRSSQSLVHSNGYTYLHWYLQKPGQSPQLLIYKVSNRFSGVPDRFSGSGSGTDFTLKISRVEAEDVGVYYCSQSTRVPYTFGQGTKLEIK", "AUC", 363000),
    ("AL2p-35 (antibody, V domains shown, Fab and IgG formats under one id) VH: QVQLVQSGAEVKKPGASVKVSCKASGYAFWSSWMNWVRQAPGQRLEWIGRIYPGDGDTNYAQKFQGRVTITADTSASTAYMELSSLRSEDTAVYYCARLLRNQPGESYAHDYWGQGTLVTVSS VL: DVVMTQSPDSLAVSLGERATINCRSSQSLVHSNGYTYLHWYQQKPGQSPKLLIYKVSNRFSGVPDRFSGSGSGTDFTLTISSLQAEDVAVYYCSQSTRVPYTFGGGTKVEIK", "AUC", 453000),
]
